assay-notes: NCI Yeast Anticancer Drug Screen. Data for the mec2-1 strain (AID 157)
conditions: S. cerevisiae mec2-1 strain, at 50.0 µM (retest, dose inferred, filed as 5.0)
The panel holds about 79,000 compounds, 15% with a hit somewhere; the sample as a whole holds those more often. Active and inactive are the calls of the source. No stated cut-off is given here; in the data, active means growth inhibition above about 70%; inactive means the rest.
The reply should be one of these categories: active, inactive

compound	label
CC12CC[C@@H](C(C)(C)O)C1[C@@H](O)CC1(C)C2CCC2[C@@]3(C)CC[C@H](O)C(C)(C)C3C(O)C[C@]21C (stereo not given in full)	active
O=C(O)c1ccc2c(c1)CCCC2	inactive
Cc1c2ccccc2c(C)c2c1cc(F)c1ccccc12	active

Ask: Each compound tested received a call. Report the one for CC[C@@]1(O)C[C@H](OC2CC(N(C)C)C(OC3CC(O)C(OC4CCC(=O)C(C)O4)C(C)O3)C(C)O2)c2c(cc3c(c2O)C(=O)c2c(O)cccc2C3=O)[C@H]1C(=O)OC (stereo not given in full) .
Reply: active

* * *

Please go through the items and note down their growth inhibition.
assay-notes: NCI Yeast Anticancer Drug Screen. Data for the rad50 strain (AID 155);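 further: 0% = growth of vehicle-only cultures of the same strain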
conditions: S. cerevisiae rad50 strain growth inhibition; at 50.0 µM; hits give high values
Compounds without any hit were thinned out: in the full panel of roughly 79,000, 15% have a hit. The source made the active and inactive calls. Rule as the data show it: active = growth inhibition above about 70%; inactive = the rest.

In [3]: df
Out[3]:
                                   compound  value_measured
0  COc1cccc(/C=C(\NC(=O)c2ccccc2)c2nc3ccccc3s2)c1  98.3% (active)

For every record below, what is its growth inhibition?
1. CCCCCCCC(=O)O[C@H]1[C@H]2[C@@H](CC1(C)C)C(=O)[C@]13O[C@H]1C(=O)[C@]1(CO1)[C@]23C
2. O=C1C(C(O)(C(F)(F)Cl)C(F)(F)Cl)CCCC1C(O)(C(F)(F)Cl)C(F)(F)Cl (centres undefined)
3. O=C(CN1CCCCC1)c1ccc(/C=C/c2ccc(Cl)cc2)cc1

Reply:
1. 91% (active)
2. 99.7% (active)
3. 98.6% (active)

For every record below, what is its growth inhibition?
1. COc1ccc(Cc2nncc3ccccc23)cc1OC
2. O=C(O)Cc1ccc2ccccc2c1-c1ccccc1
3. O=C1c2ccccc2C(=O)c2c(NCCNCCO)ccc(O)c21
4. COc1ccc(C2=NN(c3ccccc3)C[N+](c3ccc(C)cc3)=N2)cc1
5. CCC(C)(O)C#Cc1ccc(C)nc1 (centres undefined)

Reply:
91.2% (active)
86.7% (active)
85% (active)
97.5% (active)
16.1% (inactive)

* * *

assay-notes: NCI Yeast Anticancer Drug Screen. Data for the mlh1 rad18 strain (AID 175)
conditions: S. cerevisiae mlh1 rad18 strain growth inhibition; at 50.0 µM; hits give high values
About 79,000 compounds went through this panel and 15% of them were active in at least one assay; those are over-represented in the sample as a whole.
Label 1 when growth inhibition >= 60%; otherwise -1.

Reference set, count: 3
>>> print(df.to_string())
                                   compound  label
0  OC(c1cc(-c2ccc(Cl)c(Cl)c2)nc2ccccc12)C1CCCCN1 (stereo unspecified)      1
1  CCCc1cc(=O)oc2c3c(c4c(c12)OC(C)(C)CC4)O[C@H](C)[C@H](C)C3=O      1
2  COC(=O)c1c(C)cccc1C1CN=NC12Cc1ccccc1C2=O (stereo unspecified)     -1

Ask: Kindly determine if growth inhibition recorded for CC12CCC(C(Br)(Br)C1=O)C2(C)C (stereo unspecified) is above or exactly 60%.
Reply: 1

Ask: Kindly determine if growth inhibition recorded for "CS(=O)(=O)OCCN(CCOS(C)(=O)=O)c1ccc(C=Nc2ccc(-c3cnc(-c4ccc(Cl)cc4)s3)cc2)c(Cl)c1" is above or exactly 60%.
Reply: 1
